Where do the numbers come from? From patent US20230159583A1.

Entries and their measured Mortality follow.
Test system: ICR mice
Assay type: in vivo
Conditions: p.o., 15 g/kg
From the text: The experiment was designed according to the “Technical Guideline for Acute Toxicity Test of Chemical Drugs” issued by the State Food and Drug Administration in March 2005. The doses administered were 4 g/kg, 4.91 g/kg, 6.14 g/kg, 7.68 g/kg, 9.6 g/kg, 12 g/kg, and 15 g/kg (the dose could be adjusted according to the actual test results), 12 ICR mice per dose group. […]

Take a look at these entries with their results.
Query: Look up Mortality: C[C@]12C=CC(=NO)C=C1CC[C@@H]1[C@@H]2[C@@H](O)C[C@@]2(C)[C@H]1CC[C@]2(O)/C(CO)=N/O
Response: 1/12

Query: Mortality lookup needed for CC(=O)OC/C(=N\O)[C@@]1(O)CC[C@H]2[C@@H]3C[C@H](C)C4=CC(=NO)C=C[C@]4(C)[C@H]3[C@@H](O)C[C@@]21C , thanks.
Response: 6/12

Please look at the following compound next.
Query: Field request: Mortality | item: C[C@@H]1C[C@H]2[C@@H]3CCC4=CC(=NO)C=C[C@]4(C)[C@H]3[C@@H](O)C[C@]2(C)[C@H]1/C(CO)=N/O
Response: 5/12

---

Listed compounds paired with reported Swelling value
System: carrageenan-induced mouse paw swelling
Test: carrageenan-induced mouse paw swelling model
Format: in vivo
Conditions: ICR mice, 130 mg/kg by gavage once a day for seven days, 180 min after onset of inflammation
Method: The anti-inflammatory effects of the compounds prepared in the above Examples were detected using a carrageenan-induced mouse paw swelling model, and the control sample was methylprednisolone: […] (2) Gavage administration was performed once a day for seven consecutive days. The circumference of the right hind paw was marked and measured before the last administration, and the average value of the two measurements was taken as the standard. […]
Please state the figure in cm; there is no need to write the unit.

Worked cases, answers included:
Query: # input compound: CC1(C)O[C@@H]2C[C@H]3[C@@H]4C[C@H](F)C5=CC(=NO)C=C[C@]5(C)[C@@]4(F)[C@@H](O)C[C@]3(C)[C@]2(/C(CO)=N/O)O1 ; wanted: its Swelling value
Response: 0.02

Query: Give the measured Swelling value of C[C@@H]1C[C@H]2[C@@H]3CCC4=CC(=NO)C=C[C@]4(C)[C@H]3[C@@H](O)C[C@]2(C)[C@H]1/C(CO)=N/O .
Response: 0.11

Query: Please give the measured Swelling value for this compound: CCC(=O)OC/C(=N\O)[C@@]1(O)[C@H](O)C[C@H]2[C@@H]3CCC4=CC(=NO)C=C[C@]4(C)[C@@]3(F)[C@@H](O)C[C@@]21C
Response: 0.03

Further cases:
Query: Fill in: Swelling value of CC(=O)OC/C(=N\O)[C@@]1(O)CC[C@H]2[C@@H]3CCC4=CC(=NO)CC[C@]4(C)[C@H]3[C@@H](O)C[C@@]21C is ___
Response: 0.04

Query: Fill blank: measured Swelling value of the compound C[C@]12C=CC(=NO)C=C1CC[C@@H]1[C@@H]2[C@@H](O)C[C@@]2(C)[C@H]1CC[C@]2(O)/C(CO)=N/O is ____.
Response: 0.05

---

System: rat paw swelling induced by monosodium urate (MSU)
Experiment: rat paw swelling model induced by monosodium urate (MSU)
Format: in vivo
Settings: Rattus norvegicus, po, 1 h, rat, MSU-induced paw swelling, dosage 0.36 mg/kg; read-out: Swelling inhibition rate
metric: inhibition in vivo at 0.36 mg/kg (%)
# value in %; strip the unit string

Previously resolved entries follow.
Query: Give its inhibition in vivo at 0.36 mg/kg value. Item: CC(=O)OC/C(=N\O)[C@@]1(O)CC[C@H]2[C@@H]3CCC4=CC(=NO)CC[C@]4(C)[C@H]3[C@@H](O)C[C@@]21C
Response: 23.4

Query: For CCON=C1C=C[C@@]2(C)C(=C1)CC[C@@H]1[C@@H]2[C@@H](O)C[C@@]2(C)[C@H]1C[C@@H](C)[C@]2(O)/C(COC(C)=O)=N/OCC , what is its reported inhibition in vivo at 0.36 mg/kg?
Response: 10.2

Query: Record request: inhibition in vivo at 0.36 mg/kg value, item CC1(C)O[C@@H]2C[C@H]3[C@@H]4C[C@H](F)C5=CC(=NO)C=C[C@]5(C)[C@@]4(F)[C@@H](O)C[C@]3(C)[C@]2(/C(CO)=N/O)O1
Response: 17.2

More entries:
Query: Name the reported inhibition in vivo at 0.36 mg/kg value associated with the compound CCC(=O)OC/C(=N\O)[C@@]1(O)[C@H](O)C[C@H]2[C@@H]3CCC4=CC(=NO)C=C[C@]4(C)[C@@]3(F)[C@@H](O)C[C@@]21C
Response: 5.23

Query: # lookup: inhibition in vivo at 0.36 mg/kg of C[C@@H]1C[C@H]2[C@@H]3CCC4=CC(=NO)C=C[C@]4(C)[C@H]3[C@@H](O)C[C@]2(C)[C@H]1/C(CO)=N/O
Response: 9.21

Query: What value of measured inhibition in vivo at 0.36 mg/kg is listed for C[C@H]1C[C@@H]2[C@H]([C@@H](O)C[C@@]3(C)[C@H]2CC[C@]3(O)C(=O)CO)[C@@]2(C)C=CC(=O)C=C12 [Methylprednisolone, methylprednisolone, reference compound] ?
Response: 12.3

Query: Which inhibition in vivo at 0.36 mg/kg is reported for this compound? CC(=O)OC/C(=N\O)[C@@]1(O)CC[C@H]2[C@@H]3C[C@H](C)C4=CC(=NO)C=C[C@]4(C)[C@H]3[C@@H](O)C[C@@]21C
Response: 15.1

Query: What inhibition in vivo at 0.36 mg/kg value was documented for this compound, C[C@]12C=CC(=NO)C=C1CC[C@@H]1[C@@H]2[C@@H](O)C[C@@]2(C)[C@H]1CC[C@]2(O)/C(CO)=N/O ?
Response: 10.2

Query: Look up inhibition in vivo at 0.36 mg/kg for this compound: C[C@H]1C[C@@H]2[C@H]([C@@H](O)C[C@@]3(C)[C@H]2CC[C@]3(O)/C(CO)=N/O)[C@@]2(C)C=CC(=NO)C=C12
Response: 12.1

Query: I have this compound here, CCCCC(=O)O[C@]1(/C(CO)=N/O)CC[C@H]2[C@@H]3C[C@H](C)C4=CC(=NO)C=C[C@]4(C)[C@H]3[C@@H](O)C[C@@]21C , and I need its recorded inhibition in vivo at 0.36 mg/kg.
Response: 10.3
